// melting point lookup, one value per entry
measurement-kind: melting point

1) c1cncc(-c2csc(-c3cncs3)c2)c1; 69 to 70 °C
2) NC(=O)c1cncc(-c2csc(-c3cccnc3)c2)c1; 217 to 218 °C
3) CC(=O)c1cncc(-c2csc(-c3cccnc3)c2)c1; 166 to 167 °C
4) Cn1cc(-c2csc(-c3cccnc3)c2)cn1; 119 to 120 °C
5) c1cncc(-c2csc(-c3cncnc3)c2)c1; 173 to 174 °C
6) COc1cncc(-c2csc(-c3cccnc3)c2)c1; 132 to 133 °C
7) c1cncc(-c2cc(-c3cncs3)cs2)c1; 114 to 115 °C
8) c1cncc(-c2csc(-c3cnco3)c2)c1; 86 to 87 °C
9) Fc1cncc(-c2csc(-c3cccnc3)c2)c1; 186 to 187 °C
10) Cc1cncc(-c2csc(-c3cccnc3)c2)c1; 106 to 107 °C

---

target-or-system: Dyrk1A (Homo sapiens, UniProt Q13627)
Construct: encoding the catalytic domain of human Dyrk1A; thrombin cleavage site (N)
run-description: Dyrk1A kinase assay (32P-ATP, Woodtide)
assay-setup: 100 µM ATP
// IC50 lookup, one value per entry
measurement-kind: IC50 (µM)

1) Nc1cc(-c2csc(-c3cccnc3)c2)cnc1Cl [Compound 23]; 1.3
2) c1cncc(-c2csc(-c3cncc4ccccc34)c2)c1 [Compound 47]; 1.5
3) Fc1cncc(-c2csc(-c3cccnc3)c2)c1 [Compound 15]; 0.9
4) COc1cncc(-c2csc(-c3cccnc3)c2)c1 [Compound 8]; 0.7
5) COC(=O)c1cncc(-c2csc(-c3cccnc3)c2)c1 [Compound 18]; 1.2
6) c1cncc(-c2cc(-c3cncc4ccccc34)cs2)c1 [Compound 21]; 3.5
7) c1cncc(-c2cc(-c3cncnc3)cs2)c1 [Compound 22]; 1.8
8) c1ncc(-c2cc(-c3cn[nH]c3)cs2)o1 [Compound 38]; 1.5
9) Cc1cncc(-c2csc(-c3cncnc3)c2)c1 [Compound 43]; 5
10) Cc1ccncc1-c1csc(-c2cccnc2)c1 [Compound 6]; 4.4
11) c1cncc(-c2cc(-c3cnc4ccccc4c3)cs2)c1 [Compound 20]; 1.1
12) FC(F)(F)c1cncc(-c2csc(-c3cccnc3)c2)c1 [Compound 14]; 3.1
13) Cc1cncc(-c2csc(-c3cccnc3)c2)c1 [Compound 5]; 0.9
14) Cc1cncc(-c2csc(-c3cnco3)c2)c1 [Compound 35]; 1.2
15) N#Cc1cncc(-c2csc(-c3cccnc3)c2)c1 [Compound 13]; 2.6
16) c1cncc(-c2cc(-c3cnc4ccccn34)cs2)c1 [Compound 32]; 2.2
17) Clc1cncc(-c2csc(-c3cccnc3)c2)c1 [Compound 16]; 1.2

---

// pIC50 lookup, one value per entry
target-or-system: Dyrk2 (Homo sapiens)
Construct: made in house; host or cells: Escherichia coli BL21(DE3) with pRARE; plasmid pGEX-2TK-Dyrk2 (gift from W. Becker, Aachen)
Sequence (Q92630 whole entry): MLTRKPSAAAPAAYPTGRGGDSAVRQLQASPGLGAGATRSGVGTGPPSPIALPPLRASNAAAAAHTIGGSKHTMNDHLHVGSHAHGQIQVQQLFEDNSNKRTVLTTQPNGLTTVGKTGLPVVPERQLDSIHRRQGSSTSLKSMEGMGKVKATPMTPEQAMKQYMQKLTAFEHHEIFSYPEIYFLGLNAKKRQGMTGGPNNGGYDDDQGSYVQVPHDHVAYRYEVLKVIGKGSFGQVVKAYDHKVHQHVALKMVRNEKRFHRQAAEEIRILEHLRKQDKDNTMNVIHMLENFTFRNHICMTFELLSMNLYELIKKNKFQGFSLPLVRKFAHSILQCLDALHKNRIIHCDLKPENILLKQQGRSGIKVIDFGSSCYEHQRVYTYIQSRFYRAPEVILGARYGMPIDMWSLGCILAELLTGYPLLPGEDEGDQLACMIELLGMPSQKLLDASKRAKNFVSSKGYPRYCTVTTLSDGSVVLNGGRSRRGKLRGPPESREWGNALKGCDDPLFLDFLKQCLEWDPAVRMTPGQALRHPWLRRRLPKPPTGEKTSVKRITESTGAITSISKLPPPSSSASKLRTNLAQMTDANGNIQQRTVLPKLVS
run-description: Dyrk2 kinase assay (32P-ATP, Woodtide)
Assay type: biochemical
assay-setup: 100 µM ATP; read-out: IC50 Dyrk2
pIC50: −log10 of the molar value.
measurement-kind: pIC50

1) COC(=O)c1cncc(-c2csc(-c3cccnc3)c2)c1; 5.82
2) Cc1cncc(-c2csc(-c3cccnc3)c2)c1; 6.22
3) Cc1cncc(-c2csc(-c3cnco3)c2)c1; 5.82
4) c1ncc(-c2cc(-c3cn[nH]c3)cs2)o1; 5.82
5) FC(F)(F)c1cncc(-c2csc(-c3cccnc3)c2)c1; 5.52
6) c1cncc(-c2csc(-c3cncs3)c2)c1; 7.40
